Target: K-Ras G12D (Homo sapiens, UniProt P01116, G12D)
Sequence (P01116 1-188 isoform P01116-2 G12D): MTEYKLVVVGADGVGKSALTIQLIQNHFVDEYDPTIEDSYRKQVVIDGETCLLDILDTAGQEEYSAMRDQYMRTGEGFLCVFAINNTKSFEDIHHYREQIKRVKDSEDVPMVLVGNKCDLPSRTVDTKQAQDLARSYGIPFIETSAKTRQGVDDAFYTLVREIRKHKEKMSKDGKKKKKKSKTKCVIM
Assay: K-Ras G12D activation by SOS1 (KRAS G12D activation by SOS1cat assay, HTRF)
Conditions: mean, SOS1cat mediated loading of GST-KRAS G12D-GDP with fluorescent GTP analogue, read-out: K-Ras G12D activation by SOS1 IC50 - [mol/l] (mean)
Protocol: Preparation of test compound dilutions. […] Measurement and evaluation of inhibition data, calculation of IC50 values. Homogeneous time-resolved fluorescence (HTRF) was measured with a PHERAstar reader (BMG, Germany) using the HTRF module (excitation: 337 nm; emission 1: 620 nm, emission 2: 665 nm). […] IC50 values were calculated using a four-parameter fit, with a commercial software package (Genedata Screener, Switzerland). […]
Kindly supply the reported IC50 values for the records listed here.
Field format: number, assumed nM, no unit text.

What does the data say about its IC50? Entry: Oc1cc(Nc2nc3c(N4CC5COCC(C4)N5)nc(OC[C@@]45CCCN4C[C@H](F)C5)nc3s2)c2ccccc2c1 [Example 30] 10600

And then Oc1cc(Cc2nc3c(N4CC5CCC(C4)N5)nc(OCC45CCCN4CCC5)nc3s2)c2c(F)cccc2c1 [Example 14] , what is it? 635

And then Oc1cc(Oc2nc3c(N4CC5CCC(C4)N5)nc(OCC45CCCN4CCC5)nc3s2)c2c(Cl)cccc2c1 [Example 15] , what is it? 35.3

And then C#Cc1c(Cl)ccc2cc(O)cc(Oc3nc4c(N5CC6CCC(C5)N6)nc(OC[C@@]56CCCN5C[C@H](F)C6)nc4s3)c12 [Example 23] , what is it? 4.9

And then C#Cc1c(F)ccc2cc(O)cc(Cc3nc4c(N5CC6CCC(C5)N6)nc(OC[C@@]56CCCN5C[C@H](F)C6)nc4s3)c12 [Example 32] , what is it? 3.95

And then C#Cc1cccc2cc(O)cc(Oc3nc4c(N5CC6CCC(C5)N6)nc(OCC56CCCN5CCC6)nc4s3)c12 [Example 2] , what is it? 5.55

* * *

Biological target: K-Ras G12D (Homo sapiens, UniProt P01116, G12D)
Test: K-Ras G12D activation by SOS1 (KRAS G12D activation by SOS1cat assay, HTRF)
Details: mean, SOS1cat mediated loading of GST-KRAS G12D-GDP with fluorescent GTP analogue, read-out: K-Ras G12D activation by SOS1 IC50 - [mol/l] (mean)
Kindly supply the reported pIC50 values for the records listed here.
Expect pIC50 as a plain number equal to -log10 of the molar concentration.

What does the data say about its pIC50? Entry: C#Cc1c(F)ccc2cc(O)cc(Oc3nc4c(N5C[C@H]6CC(F)[C@@H](C5)N6)nc(OC[C@@]56CCCN5C[C@H](F)C6)nc4s3)c12 (single isomer, unassigned) [Example 25] 7.73

And then C#Cc1c(F)ccc2cc(O)cc(Oc3nc4c(N5CC6COCC(C5)N6)nc(OC[C@@]56CCCN5C[C@H](F)C6)nc4s3)c12 [Example 19] , what is it? 7.84

And then C#Cc1c(F)ccc2cc(O)cc(Oc3nc4c(N5CC6COCC(C5)N6)nc(OCC56CCCN5CCC6)nc4s3)c12 [Example 13] , what is it? 7.59
